// endpoint AC50 / system Progesterone receptor (Homo sapiens, UniProt P06401); also: assay procedure not described here
Quantity name: AC50 (µM)

• CC(=O)OC(C)OC(=O)C(C)c1ccc(-c2ccccc2)c(F)c1 (stereo not drawn) = 25.4
• O=C(Nc1cccc2c(=O)cc(-c3nnn[nH]3)oc12)c1ccc(OCCCCc2ccccc2)cc1 = 6.23
• CCCCCCCCCCCCCCCCCC(=O)NCCCC[C@H](NC(=O)CC[C@@H](NC(=O)[C@H](C)NC(=O)[C@@H](C)O[C@H]1[C@H](O)[C@@H](CO)OC(O)[C@@H]1NC(C)=O)C(N)=O)C(=O)O (stereo partly drawn) [ROMURTIDE] = 2.94
• C[C@@H]1C[C@H]2[C@@H]3CCC4=CC(=O)C=C[C@]4(C)C3=CC[C@]2(C)[C@H]1C(=O)CN1CCN(c2cc(N3CCCC3)nc(N3CCCC3)n2)CC1 = 6.37

====

Target: Muscarinic acetylcholine receptor M1 (Homo sapiens, UniProt P11229); also: assay procedure not described here
Sequence (P11229 whole entry): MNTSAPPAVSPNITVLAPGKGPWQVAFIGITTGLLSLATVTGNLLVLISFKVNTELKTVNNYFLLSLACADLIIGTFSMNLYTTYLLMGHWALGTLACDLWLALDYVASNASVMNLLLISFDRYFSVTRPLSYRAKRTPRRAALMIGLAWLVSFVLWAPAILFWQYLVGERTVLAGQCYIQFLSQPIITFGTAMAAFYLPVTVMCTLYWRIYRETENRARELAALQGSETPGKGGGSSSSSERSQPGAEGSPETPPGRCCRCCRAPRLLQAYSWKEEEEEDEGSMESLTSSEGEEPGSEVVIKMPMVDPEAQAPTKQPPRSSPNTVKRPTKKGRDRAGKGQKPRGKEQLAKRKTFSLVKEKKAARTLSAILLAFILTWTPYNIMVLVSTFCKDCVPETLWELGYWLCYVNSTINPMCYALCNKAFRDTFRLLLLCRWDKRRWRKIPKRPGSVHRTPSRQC
Assay type: functional
Quick list: AC50 per entry.
Quantity name: AC50

• CC#CCn1c(N2CCC[C@@H](N)C2)nc2c1c(=O)n(Cc1nc(C)c3ccccc3n1)c(=O)n2C = > 10 µM
• N#C[C@@H]1CCCN1C(=O)CNC12CC3CC(CC(O)(C3)C1)C2 = > 30 µM
• C[C@]12CC[C@H](O)CC1=CC[C@@H]1[C@@H]2CC[C@]2(C)C(c3cccnc3)=CC[C@@H]12 = > 10 µM
• CNCC[C@H](Oc1cccc2ccccc12)c1cccs1 = > 10 µM
• O=C(O)c1cc(O)c2c3nc4ccccc4oc-3cc(=O)c2n1 = 6.7 µM
• Cc1cc2nc3c(=O)[nH]c(=O)nc-3n(C[C@H](O)[C@H](O)[C@H](O)COP(=O)(O)O)c2cc1C [RIBOFLAVIN 5'-PHOSPHATE] = > 30 µM
• OCCN1CCN(CC/C=C2/c3ccccc3Sc3ccc(Cl)cc32)CC1 = > 10 µM
• C#Cc1cccc(Nc2ncnc3cc(OCCOC)c(OCCOC)cc23)c1 = > 30 µM
• CN(c1nccc(=O)[nH]1)C1CCN(c2nc3ccccc3n2Cc2ccc(F)cc2)CC1 = 0.011 µM
• CCN(CC)C(=O)C1(c2ccccc2)CC1CN (centres undefined) = > 30 µM
• CCCCC[C@H](O)/C=C/[C@H]1[C@H](O)CC(=O)[C@@H]1C/C=C\CCCC(=O)O = > 30 µM
• Oc1c(I)cc(Cl)c2cccnc12 = > 30 µM
• C[C@H]1Oc2cc(cnc2N)-c2c(nn(C)c2C#N)CN(C)C(=O)c2ccc(F)cc21 = > 30 µM
• CC(=O)Oc1ccccc1C(=O)Nc1ncc([N+](=O)[O-])s1 [NITAZOXANIDE] = > 30 µM
• CCCOC(C(=O)OC1CCN(C)CC1)(c1ccccc1)c1ccccc1 = 1.7 µM
• C#C[C@]1(O)CC[C@H]2[C@@H]3CCC4=CC(=O)CCC4=C3C=C[C@@]21CC = > 30 µM
• CC(=O)O[C@H]1C[C@@H]2CC[C@@H]3[C@H](CC[C@@]4(C)[C@H]3C[C@H]([N+]3(C)CCCCC3)[C@@H]4OC(C)=O)[C@@]2(C)C[C@@H]1[N+]1(C)CCCCC1 = > 10 µM
• O=C(CCCN1CCC2(CC1)C(=O)NCN2c1ccccc1)c1ccc(F)cc1 = > 30 µM
• CC(C)N(CCCCOCC(=O)NS(C)(=O)=O)c1cnc(-c2ccccc2)c(-c2ccccc2)n1 = > 30 µM
• CO/N=C(\C(=O)N[C@@H]1C(=O)N2C(C(=O)O)=C(COC(N)=O)CS[C@H]12)c1ccco1 = > 30 µM
• CC(C)C[C@H](CN)CC(=O)O = > 30 µM
• CN(C)c1cc(CNCC(C)(C)C)c(O)c2c1C[C@H]1C[C@H]3[C@H](N(C)C)C(O)=C(C(N)=O)C(=O)[C@@]3(O)C(O)=C1C2=O = 29 µM
• COc1cccc(N(C)C(=S)Oc2ccc3c(c2)CCCC3)n1 [LIRANAFTATE] = > 30 µM
• CCN(CC)CCOC(=O)c1ccc(N)cc1Cl = > 30 µM
• CC(C)c1cc2c(cc1S(=O)(=O)O)[C@@]1(C)CCC[C@@](C)(C(=O)O)[C@@H]1CC2 = > 30 µM
• CC(C)=CCOc1ccc(/C=C/C(=O)c2ccc(OCC=C(C)C)cc2OCC(=O)O)cc1 = > 30 µM
• CO[C@@]1(NC(=O)Cc2cccs2)C(=O)N2C(C(=O)O)=C(COC(N)=O)CS[C@@H]21 = > 30 µM
• Cc1cc(CC(=O)O)n(C)c1C(=O)c1ccc(Cl)cc1 [ZOMEPIRAC] = > 30 µM
• COc1cc2c(Nc3ccc(Br)cc3F)ncnc2cc1OCC1CCN(C)CC1 = 11 µM
• N[C@H](Cc1cc(I)c(Oc2cc(I)c(O)c(I)c2)c(I)c1)C(=O)O = > 10 µM
• O=C(CCCN1CCC(n2c(O)nc3ccccc32)CC1)c1ccc(F)cc1 = 13 µM
• C=C(C)[C@@H]1CCC(C)=C[C@H]1c1c(O)cc(CCCCC)cc1O = > 30 µM
• Nc1nc(F)nc2c1ncn2[C@@H]1O[C@H](COP(=O)(O)O)[C@@H](O)[C@@H]1O [FLUDARABINE PHOSPHATE] = > 30 µM
• CC1(C)C(C=C(Cl)Cl)C1C(=O)OCc1cccc(Oc2ccccc2)c1 (centres undefined) = > 10 µM

Just for reference, ChEMBL document CHEMBL5291721 is where these values come from.
